As shown below, each of these molecules has a reported Percent Effect value.
System: Wolbachia pipientis
Experiment: Anti-Wolbachia Cell-Based Screen
Type: functional
Set-up: scale not given: in the data most compounds retested in dose-response had high values
Settings: 5 µM
About 13,000 (27%) of roughly 48,000 compounds showed an effect of 50% or more. The list shows a part of the results.
A number alone suffices; assume %.

Known results for molecules:
{"columns": ["molecule", "measurement_units", "Percent Effect"],
 "data": [
  ["NC(=O)C1(c2cnccn2)CCCN1Cc1ccc(F)c(F)c1 (configuration not stated)", "%", 80.27],
  ["Cc1nc(C)n(CC2CCCN2Cc2cnc(C)s2)n1 (configuration not stated)", "%", -0.1768],
  ["CCC(CC)C(=O)N1CCN(C)c2ncccc2C1", "%", -0.9461]
]}

Task: Entry under review: CNC(=O)c1nc2c(s1)CCN(C(=O)c1ccc(OC)cc1)CC2 . Reported Percent Effect?
Output: -5.332

Task: Give its Percent Effect value. Item: Cn1ncc2c1CCCC2NCc1cccnc1 (configuration not stated)
Output: 87.53

Task: Item CCCOc1cc(C)ccc1NC(=O)NCCC(=O)N(C)C has what recorded Percent Effect?
Output: -7.738

Task: Entry under review: CCCC(=O)N1CCCC(c2ccccn2)C1 (configuration not stated) . Reported Percent Effect?
Output: 152.5

Task: Fill blank: measured Percent Effect of the molecule Cn1ncc2c1CCCC2NCc1cnc(-c2ccccc2)nc1 (configuration not stated) is ____.
Output: -0.06204

Task: Can you look up the measured Percent Effect of Cc1ccsc1CCNC(C)C(=O)NC1CCCC1 (configuration not stated) for me?
Output: 3.624

Task: Entry O=C(Nc1cc(C2CCOCC2)[nH]n1)c1cc[nH]n1 has what Percent Effect?
Output: -3.397

Task: Value lookup for Percent Effect; key = Cc1ccc(CNC2CCCc3c2cnn3C)s1.Cl (configuration not stated)
Output: 1.48

Task: Quick one: Percent Effect for N#Cc1cc(N2CCC(CS(N)(=O)=O)CC2)c2ccccc2n1 ?
Output: 3.151

Task: What value of measured Percent Effect is listed for CNC(=O)C1(c2cnccn2)CCCN1C(=O)c1ccccn1 (configuration not stated) ?
Output: 81.35

====

Below is a list of entries, each paired with its recorded Percent Effect value.
System: Wolbachia pipientis
Assay: Anti-Wolbachia Cell-Based Screen
Format: functional
Set-up: scale not given: in the data most compounds retested in dose-response had high values
Settings: 5 µM
The campaign covered roughly 48,000 compounds. About 13,000 (27%) showed an effect of 50% or more. The list shows a part of the results.
# number only, unit % dropped from output

Please review the following examples before continuing.
{"columns": ["compound", "assayed_system", "measurement_units", "Percent Effect"],
 "data": [
  ["O=C(CN1CC(n2cccn2)C1)NCCCN1CCCC1=O", "Wolbachia pipientis", "%", 95.99],
  ["N#Cc1ccc(Cl)cc1NCC1CCOC1 (stereo not given)", "Wolbachia pipientis", "%", 108.5],
  ["CN(Cc1noc(C(C)(C)C)n1)CC1CCN(CCO)CC1", "Wolbachia pipientis", "%", -10.5],
  ["Cc1nc(C)n(C2CCCN(C(=O)c3ccccc3C)C2)n1 (stereo not given)", "Wolbachia pipientis", "%", 3.222],
  ["O=C(NC1CCc2c(ccc(=O)n2CC2CC2)C1)c1ccsc1 (stereo not given)", "Wolbachia pipientis", "%", 1.111]
]}

Task: Can you look up Percent Effect on Wolbachia pipientis for CC(C)NC1CCc2c(ccc(=O)n2CCN2CCCC2=O)C1.O=C(O)C(F)(F)F (stereo not given) ?
Output: -4.2

Task: Query the reported Percent Effect for Wolbachia pipientis; item: CCc1noc(CN(CCC2CCCCC2)CC(N)=O)n1
Output: 163.4

Task: Observed Percent Effect on Wolbachia pipientis for C=C(C)CN(CC)Cc1nc(CC)no1 , please.
Output: 1.944

====

// reported Percent Effect per item
Test system: Wolbachia pipientis
Test: Anti-Wolbachia Cell-Based Screen
Type: functional
Parameters: scale not given: in the data most compounds retested in dose-response had high values
Conditions: 5 µM
About 13,000 (27%) of roughly 48,000 compounds showed an effect of 50% or more. The list shows a part of the results.
Report the value in % with no unit label.

{"columns": ["compound", "measurement_units", "reported_measurement"],
 "data": [
  ["CN1CCCc2cc(CNC(=O)c3cccnc3O)ccc21", "%", 90.33],
  ["CNC(=O)NC(=O)CSc1ccc2c(c1)CCC2", "%", -2.658],
  ["CNC(=O)C1CCC2(CCN(c3nncs3)CC2)CO1.O=C(O)C(F)(F)F (stereo unspecified)", "%", 1.191],
  ["O=C1CC(Cc2ccc(NC(=O)c3cccc(F)c3)cc2)C(=O)N1 (stereo unspecified)", "%", -11.36],
  ["Cc1cnc(N2C[C@@H]3CN(C4CCOC4)CCC[C@]3(C(=O)O)C2)nc1.O=C(O)C(F)(F)F (stereo partly specified)", "%", 115.6]
]}

Task: Fill in the recorded Percent Effect for this compound, with Wolbachia pipientis as test system: CCc1oc(C(=O)NC(C)c2ncn[nH]2)cc1CN1CCCC1 (stereo unspecified)
Output: 82.75

Task: Query Percent Effect on Wolbachia pipientis for O=C(O)C(F)(F)F.O=C(O)[C@]12CCCN(CC3CCOC3)C[C@H]1CN(c1ncccn1)C2 (stereo partly specified)
Output: 119

Task: Entry COCCCN(C)C(=O)c1nnn(-c2ccccc2Cl)c1C , system Wolbachia pipientis: what Percent Effect was measured?
Output: -5.685

Task: Short answer please: Percent Effect, Wolbachia pipientis, entry CCN(CC)CCNC(=O)c1nn(CC)cc1Cl
Output: 13.81

Task: Give recorded Percent Effect with Wolbachia pipientis for the following compound: CCc1oc(C(=O)NC(C)Cc2cnccn2)cc1CN1CCCC1 (stereo unspecified)
Output: 92.2

Task: Find the measured Percent Effect: item CS(=O)(=O)CCC(=O)NC1(c2cccc(Br)c2)CC1 , target or system Wolbachia pipientis.
Output: -24.79

Task: What value of Percent Effect on Wolbachia pipientis does COc1ccc(COCC(O)CNC(=O)c2cnc(C)cn2)cc1 (stereo unspecified) have?
Output: 4.456

Task: // lookup Percent Effect | system=Wolbachia pipientis | key= C1CCC(NCC2(N3CCOCC3)CCSC2)C1 (stereo unspecified)
Output: -110.3

====

Test system: Wolbachia pipientis
Assay: Anti-Wolbachia Cell-Based Screen
Assay type: functional
Parameters: scale not given: in the data most compounds retested in dose-response had high values
Settings: 5 µM
Screen size: about 48,000 compounds; about 13,000 (27%) showed an effect of 50% or more. The list shows a part of the results.
quantity_measured: Percent Effect (%)
Reply numerically in %, unit not repeated.

Example compounds with recorded Percent Effect:
{"columns": ["compound", "Percent Effect, %"],
 "data": [
  ["Cc1n[nH]c(C)c1Sc1ccccc1NC(=O)N1CCOCC(O)C1 (centres undefined)", -4.124],
  ["CCn1cc(CN2CCCN(C(=O)c3cccn3C)CC2)cn1", 145.7],
  ["CC(C)c1ccnc(N[C@H]2COC[C@@H]2N2CCCC2)n1", 5.714]
]}

Next, consider the following compound.
Task: What value of Percent Effect has been reported for the following compound? CC(C)NC1CCc2c(ccc(=O)n2CCN2CCOCC2)C1.O=C(O)C(F)(F)F.O=C(O)C(F)(F)F (centres undefined)
Output: 1.575

====

Test system: Wolbachia pipientis
Assay: Anti-Wolbachia Cell-Based Screen
Assay type: functional
Set-up: scale not given: in the data most compounds retested in dose-response had high values
Details: 5 µM
Screen size: about 48,000 compounds; about 13,000 (27%) showed an effect of 50% or more. The list shows a part of the results.
quantity_measured: Percent Effect (%)
Report as a plain number; the unit % is understood.

{"columns": ["compound", "Percent Effect (%)"],
 "data": [
  ["Cc1noc(CNc2ccc(C(=O)N3CCCC(C)C3)cc2C)n1 (stereo unspecified)", 71.8],
  ["Cc1nccn1C1CCCN(C(=O)CCc2nc(C(C)C)no2)C1 (stereo unspecified)", 10.57],
  ["COCC(=O)NCC(Cc1cccc(F)c1)n1cccc1 (stereo unspecified)", 5.07],
  ["COc1cccc(-c2noc(C3CCN(CC(N)=O)C3)n2)c1 (stereo unspecified)", 113.2],
  ["CSC(C)(C)CNC(=O)NCc1cccc(-n2cncn2)c1", 2.602]
]}

Task: Identify the measured Percent Effect of CCCC(=O)NCCc1nc2cc(-c3ccc(OC)cc3)ncn2n1 for Wolbachia pipientis.
Output: 102.6

Task: I'm curious: which Percent Effect was measured for Cc1cc(C(=O)N2CCCC(C)C2)ccc1NCc1nc(C(C)C)no1 (stereo unspecified) tested on Wolbachia pipientis?
Output: 111.7

====

Test system: Wolbachia pipientis
Test: Anti-Wolbachia Cell-Based Screen
Format: functional
Set-up: scale not given: in the data most compounds retested in dose-response had high values
Settings: 5 µM
Hit rate of the full screen: of about 48,000 compounds, about 13,000 (27%) showed an effect of 50% or more. The list shows a part of the results.
quantity_measured: Percent Effect (%)
Report only the number, with the unit % understood.

// known answers, use as guide
{"columns": ["compound", "assayed_system", "measurement_units", "Percent Effect"],
 "data": [
  ["Cc1ccc(CC(=O)NCC(O)c2cccc(C(F)(F)F)c2)cn1 (stereo not given)", "Wolbachia pipientis", "%", -12.46],
  ["COCC(=O)N1CCN(C(=O)C2CCCCC2)[C@@H](C(=O)OC)C1", "Wolbachia pipientis", "%", -2.41],
  ["CN(Cc1ccsc1)C(=O)Nc1cccnc1N1CCCC1", "Wolbachia pipientis", "%", 3.447]
]}

Task: Could you share which Percent Effect value was measured for COc1nc2ccn(CCc3scnc3C)c(=O)c2cc1C#N ?
Output: -7.908

Task: Given the entry CC(C)c1ncc(CN2CCC(c3n[nH]cc3C(=O)N(C)C)C2)cn1 (stereo not given) , report its measured Percent Effect.
Output: 128.3

Task: I have this compound here, CCOCCCC(=O)NC1CCN(C(C)c2ccccc2)CC1 (stereo not given) , and I need its recorded Percent Effect.
Output: -0.8786

Task: State the recorded Percent Effect for this entry: CC(C)c1ncc(CN2C[C@@H](CN3CCC(O)CC3)[C@@H](CO)C2)cn1
Output: -17.14

Task: Fill in: Percent Effect of CCC(=O)NCC(=O)Nc1c(C)cnn1Cc1cc(F)ccc1F is ___
Output: -6.238

Task: Requested field: Percent Effect. Item: Cc1nn(C)c(C)c1C1CCCN1Cc1cccc(C(=O)N(C)C)c1 (stereo not given)
Output: -5.304

Task: Name the reported Percent Effect value associated with the compound OC1(CNCCSc2ccccn2)CNCCOC1 (stereo not given)
Output: -26.11

Task: What does the record list as Percent Effect for COCC(=O)N1CCC(c2nccnc2Oc2cccnc2C)CC1 ?
Output: 0.288

Task: I'd like to know its Percent Effect. The compound in question is CCc1cn[nH]c1C1CCCN(C(=O)c2cnc(NC(C)C)nc2)C1 (stereo not given)
Output: -3.348

Task: I would be grateful if you could share the reported Percent Effect for CCS(=O)(=O)CC(=O)Nc1ccc2oc(C3CC3)nc2c1 .
Output: -4.895

Task: Any idea what its Percent Effect is? The compound is Cc1oc(CNC(=O)Cc2ccc3ccccc3c2)cc1C(=O)O
Output: -0.3002

Task: Report Percent Effect for CC(C)c1ncc(CN2CCCC(CO)C2)cn1 (stereo not given) please.
Output: -2.469

Task: Record request: Percent Effect value, item CCCSCC(=O)N1C[C@H]2CC[C@@H]1CN(c1ncccn1)C2
Output: 28.59

Task: What does the data say about its Percent Effect? Entry: Cc1ccc(CC(=O)NCC(Cc2ccc(F)cc2)C(N)=O)cn1 (stereo not given)
Output: 110.1

Task: Consider the compound COCCC(=O)NCc1cccnc1-n1cnc2ccccc21 and give its measured Percent Effect.
Output: -10.59

Task: // returns reported Percent Effect for input COc1ccc2c(c1)C(=O)N(C)C1(CCN(CC3CC3)CC1)N2
Output: -12.56

Task: What Percent Effect value was documented for this compound, O=C(O)C(F)(F)F.O=C(O)C(F)(F)F.c1csc(CN2CCOCC3(CCN(C4CCOCC4)C3)C2)n1 (stereo not given) ?
Output: 4.386

Task: Which Percent Effect is reported for this compound? Cc1ncccc1Oc1nccnc1C1CCCN(C(C)C)C1 (stereo not given)
Output: 134.2

Task: Looking for the measured Percent Effect of CS(=O)(=O)Nc1cccc(CNC(=O)CCc2ccsc2)c1 , can you help?
Output: -4.988

Task: Endpoint output: Percent Effect of COc1ccccc1NCC(=O)NCc1cc[nH]n1 . Value?
Output: 15.35
